Target: human recombinant GPR65 (Homo sapiens)
Sequence (Q8IYL9 whole entry): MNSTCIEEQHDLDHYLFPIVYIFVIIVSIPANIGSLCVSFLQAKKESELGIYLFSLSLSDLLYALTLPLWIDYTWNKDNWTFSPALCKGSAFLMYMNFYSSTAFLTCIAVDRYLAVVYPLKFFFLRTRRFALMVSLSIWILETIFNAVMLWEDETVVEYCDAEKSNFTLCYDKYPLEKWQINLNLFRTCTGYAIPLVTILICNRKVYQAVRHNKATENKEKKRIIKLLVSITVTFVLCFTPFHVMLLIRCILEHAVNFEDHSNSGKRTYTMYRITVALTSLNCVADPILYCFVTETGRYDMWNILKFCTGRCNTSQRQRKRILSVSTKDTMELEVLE
Test: Human GPR65 cAMP HTRF antagonist assay
Conditions: 1321N1-hrGPR65 cells, assay pH 7.2, cAMP HTRF; read-out: hGPR65 IC50
readout_label: IC50

Input: # query: IC50 | item COc1cc(-c2ccc(OCC(F)(F)F)nc2)c(Cl)cc1NC(=O)N1CCc2cc(=O)[nH]cc2C1 [Compound 14] | system: human recombinant GPR65 (Homo sapiens)
Output: 500 to 5000 nM

Input: Fill in the recorded IC50 for this compound, with human recombinant GPR65 (Homo sapiens) as test system: O=C(Nc1cc(Cl)c(-c2ccc(F)nc2)cc1OCc1ccccc1)N1CCc2cc(=O)[nH]cc2C1 [Compound 16]
Output: > 5000 nM

Sourced from patent US20260216151A1
